Reference source for all entries: patent US20240124408A1

- experimental system: pig TRPM8 (Sus scrofa, UniProt F1SM15)
- Construct: expressed in transfected cells; host or cells: CHO (pcDNA5/FRT/TO vector; hygromycin B and blasticidin selection)
- Sequence (F1SM15 1-1104): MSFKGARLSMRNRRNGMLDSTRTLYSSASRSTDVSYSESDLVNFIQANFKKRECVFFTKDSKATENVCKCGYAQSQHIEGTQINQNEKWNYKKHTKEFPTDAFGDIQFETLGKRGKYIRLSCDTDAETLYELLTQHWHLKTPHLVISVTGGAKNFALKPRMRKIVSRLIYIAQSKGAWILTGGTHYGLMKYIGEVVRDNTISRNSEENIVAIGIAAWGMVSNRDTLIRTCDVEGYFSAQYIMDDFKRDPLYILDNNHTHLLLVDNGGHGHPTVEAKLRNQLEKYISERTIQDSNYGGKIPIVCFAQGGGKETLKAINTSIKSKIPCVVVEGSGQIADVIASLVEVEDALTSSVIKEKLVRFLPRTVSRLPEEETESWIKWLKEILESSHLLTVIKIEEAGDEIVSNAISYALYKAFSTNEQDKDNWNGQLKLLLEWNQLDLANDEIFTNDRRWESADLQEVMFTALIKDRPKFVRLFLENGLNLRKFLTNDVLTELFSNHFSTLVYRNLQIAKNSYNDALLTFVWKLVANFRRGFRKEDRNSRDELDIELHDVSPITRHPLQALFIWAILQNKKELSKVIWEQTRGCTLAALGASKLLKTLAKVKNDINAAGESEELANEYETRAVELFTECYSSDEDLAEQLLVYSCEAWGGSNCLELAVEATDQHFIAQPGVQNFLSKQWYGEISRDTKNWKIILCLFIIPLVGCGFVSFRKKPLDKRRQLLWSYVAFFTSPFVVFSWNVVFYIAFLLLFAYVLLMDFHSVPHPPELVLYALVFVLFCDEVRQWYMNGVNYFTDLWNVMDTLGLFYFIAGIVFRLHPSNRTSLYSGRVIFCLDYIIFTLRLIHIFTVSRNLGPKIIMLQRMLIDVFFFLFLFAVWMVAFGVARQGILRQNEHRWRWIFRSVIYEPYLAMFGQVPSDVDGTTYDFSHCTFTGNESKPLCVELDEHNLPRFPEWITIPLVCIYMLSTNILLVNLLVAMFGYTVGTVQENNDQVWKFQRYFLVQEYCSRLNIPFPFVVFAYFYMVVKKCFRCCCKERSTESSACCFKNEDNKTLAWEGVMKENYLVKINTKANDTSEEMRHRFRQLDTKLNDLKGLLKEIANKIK
- method summary: In vitro pig TRPM8 fluorescence calcium flux assay (recombinant CHO cells, Fluo4-AM, FDSS6000)
- Assay type: cell-based
- condition: recombinant CHO cells expressing pig TRPM8; menthol-related EC50, normalized to 100 μM menthol
Give measured pEC50 for each item. Keep answers brief.
Give bare numbers, as −log10 of the molar value.

# example entries with known answers
CC(C)[C@@H]1CC[C@@H](C)C[C@@]1(O)C(=O)NCC1OC(=O)c2ccccc21 (mixture of isomers) [Example 17]; 6.72
CC(C)[C@@H]1CC[C@@H](C)C[C@@]1(O)C(=O)NCC1(O)CCc2ccccc21 (single isomer, unassigned) [Example 175]; 6.27
CC(C)[C@@H]1CC[C@@H](C)C[C@@]1(O)C(=O)NCCc1ccccc1 [Example 51]; 8.35

Dear reader, for each entry below, please note its pEC50.
1. Cc1ccccc1CCNC(=O)[C@]1(O)C[C@H](C)CC[C@H]1C(C)C [Example 59]
2. [2H]C(O)(CNC(=O)[C@]1(O)C[C@H](C)CC[C@H]1C(C)C)c1ccccc1 (single isomer, unassigned) [Example 92]
3. CC(C)[C@@H]1CC[C@@H](C)C[C@@]1(O)C(=O)NCCc1cccc(S(N)(=O)=O)c1 [Example 133]
4. COc1cc(C=O)ccc1OC(=O)CNC(=O)[C@]1(O)C[C@H](C)CC[C@H]1C(C)C [Example 68]
5. CC(C)[C@@H]1CC[C@@H](C)C[C@@]1(O)C(=O)NCC(=O)c1ccccc1Cl [Example 140]

1. 8.37
2. 8.64
3. 7.14
4. 7.49
5. 8.48

If you can, please state the reported pEC50 value of CC(C)[C@@H]1CC[C@@H](C)C[C@@]1(O)C(=O)NC[C@H](F)c1ccccc1 [Example 179] . 9.22
